measurementParameters: in DMF, 303.15 K
observationType: solubility (mole fraction)

Please look at this molecule and report its solubility (mole fraction): N#CN=C(N)N
0.262

====

measurementParameters: in DMF, 293.15 K
observationType: solubility (mole fraction)
API note: the answer field is a bare number with no unit suffix.

Assign solubility (mole fraction) to the following record: N#CN=C(N)N
0.258

====

measurementParameters: in DMF, 323.15 K
observationType: solubility (mole fraction)
Output spec: single numeric token, no unit.

Respond only with solubility (mole fraction) recorded for N#CN=C(N)N
0.284

====

measurementParameters: in water, 288.15 K
observationType: solubility (mole fraction)
Just the number, please.

Quick one: give measured solubility (mole fraction) for N#CN=C(N)N
0.00594

====

measurementParameters: in DMF, 318.15 K
observationType: solubility (mole fraction)
# respond with the number and nothing more

Quickly give me recorded solubility (mole fraction) for N#CN=C(N)N
0.276

====

measurementParameters: in DMF, 283.15 K
observationType: solubility (mole fraction)
Answer as a number with no unit attached.

Read off the recorded solubility (mole fraction) for N#CN=C(N)N
0.239

====

measurementParameters: in water, 283.15 K
observationType: solubility (mole fraction)
API doc: respond with a numeric literal and nothing else, no unit.

Give a short answer stating reported solubility (mole fraction) for N#CN=C(N)N .
0.00474

====

measurementParameters: in water, 323.15 K
observationType: solubility (mole fraction)
Write the value as a bare number.

Please report solubility (mole fraction) for the following compound: N#CN=C(N)N
0.0244

====

measurementParameters: in water, 313.15 K
observationType: solubility (mole fraction)

State its solubility (mole fraction): N#CN=C(N)N
0.0173
